- study target: human PHD2 (PHD2181-417) (Homo sapiens)
- Construct: Smt (SUMO) tag (cleaved yes); made in house; host or cells: E. coli BL21 (pBAD vector)
- experiment notes: PHD enzymatic assay ([14C]-succinic acid production)
- Format: biochemical
- applied conditions: PHD2181-417, HIF-1α peptide 10 μM, average of results; read-out: Enzyme pIC50 (converted)
- Protocol: Protein production was achieved by expression in BL21 cells grown in Terrific Broth containing 100 μg/ml ampicillin. Cell cultures were inoculated at 37° C. and grown to an OD600 of 0.8. Cultures were induced with 0.1% arabinose and grown overnight at 20° C. with continuous shaking at 225 rpm. Cells were then harvested by centrifugation and stored at −80° C. […]
quantity name: IC50 (nM)
Numbers only, in nM.

CN(C)c1ccc2c(=O)[nH]c(-n3cc(C(=O)O)cn3)nc2c1 [Example 150]	158
CC(C)(C)c1ccc(S(=O)(=O)c2cc3c(=O)[nH]c(-n4cc(C(=O)O)cn4)nc3cc2Cl)cc1 [Example 72]	50.1
O=C(O)c1cnn(-c2nc3ccc(Oc4ccccc4)cc3c(=O)[nH]2)c1 [Example 20]	25.1
O=C(O)c1cnn(-c2nc3cc(Br)ccc3c(=O)[nH]2)c1 [Example 134]	50.1
O=C(O)c1cnn(-c2nc3ccc(Oc4ccccc4F)cc3c(=O)[nH]2)c1 [Example 33]	31.6

For every item below, please supply its IC50.
1. O=C(O)c1cnn(-c2nc3cc(Cl)c(Oc4ccc(Cl)cc4)cc3c(=O)[nH]2)c1 [Example 48]
2. CC(C)(C)c1ccc2nc(-n3cc(C(=O)O)cn3)[nH]c(=O)c2c1 [Example 19]
3. Cc1cccc(C)c1C(=O)Nc1ccc2nc(-n3cc(C(=O)O)cn3)[nH]c(=O)c2c1 [Example 166]

1: 31.6; 2: 39.8; 3: 31.6

###

For each entry below, report its Emax at 100 µM value.
- System: Hep-3B cells
- experiment notes: Cellular assay: erythropoietin secretion in Hep-3B cells
- Assay type: cell-based, human
- applied conditions: Homo sapiens, Hep3B, 100 μM compound, 24 hours, percent of EPO secretion relative to assay control compound 7-[(4-Chloro-phenyl)-(5-methyl-isoxazol-3-ylamino)-methyl]-quinolin-8-ol, read-out: Cellular % EPO Stimulation
Please append the unit to your numeric answer.

Worked cases, Emax at 100 µM given:
O=C(O)c1cnn(-c2nc3cc(F)c(Oc4cccc(F)c4)cc3c(=O)[nH]2)c1	68%
O=C(O)c1cnn(-c2nc3ccccc3c(=O)[nH]2)c1	9%

List the reported Emax at 100 µM of each compound below.
1. Cc1cc2nc(-n3cc(C(=O)O)cn3)[nH]c(=O)c2cc1Oc1cccc(-c2ccccc2)c1
2. COc1ccc(-c2ccc3nc(-n4cc(C(=O)O)cn4)[nH]c(=O)c3c2)cc1
3. O=C(O)c1cnn(-c2nc3ccc(OC4CCCCC4)cc3c(=O)[nH]2)c1

1: 75%; 2: 118%; 3: 59%

###

Answer each item with its documented IC50.
- study target: human PHD2 (PHD2181-417) (Homo sapiens, UniProt Q9GZT9)
- Construct: Smt (SUMO) tag (cleaved yes); made in house; host or cells: E. coli BL21 (pBAD vector)
- Sequence (Q9GZT9 181-417): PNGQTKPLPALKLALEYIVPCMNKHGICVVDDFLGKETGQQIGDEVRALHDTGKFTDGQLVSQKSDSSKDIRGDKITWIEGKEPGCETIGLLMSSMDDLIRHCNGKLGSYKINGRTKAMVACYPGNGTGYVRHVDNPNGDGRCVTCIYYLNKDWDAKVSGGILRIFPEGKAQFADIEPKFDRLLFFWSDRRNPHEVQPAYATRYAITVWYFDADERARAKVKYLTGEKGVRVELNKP
- experiment notes: PHD enzymatic assay ([14C]-succinic acid production)
- Assay type: biochemical
- applied conditions: PHD2181-417, HIF-1α peptide 10 μM, average of results; read-out: Enzyme pIC50 (converted)
One number for each entry, in nM.

Some solved cases for reference:
O=C(O)c1cnn(-c2nc3cc(F)c(Oc4cccc5ccccc45)cc3c(=O)[nH]2)c1 [Example 57]	20
COc1cccc(Oc2ccc3nc(-n4cc(C(=O)O)cn4)[nH]c(=O)c3c2)c1 [Example 31]	20
Nc1ccc2nc(-n3cc(C(=O)O)cn3)[nH]c(=O)c2c1 [Example 180]	63.1

Dear colleague, could you send me IC50 for each of the items below? Thanks.
1. Cc1ccc2c(=O)[nH]c(-n3cc(C(=O)O)cn3)nc2c1 [Example 10]
2. Cc1cccc(C)c1Oc1c(F)cc2nc(-n3cc(C(=O)O)cn3)[nH]c(=O)c2c1F [Example 63]

50.1
20

Report IC50 for each item below.
1. O=C(O)c1cnn(-c2nc3cc(Sc4ccccc4)ccc3c(=O)[nH]2)c1 [Example 78]
2. Cc1ccc(-c2ccc3nc(-n4cc(C(=O)O)cn4)[nH]c(=O)c3c2)cc1 [Example 191]

[39.8, 20]
